Target: T1, human TGFβ3 (human, UniProt P10600 301-412)
T1 sequence: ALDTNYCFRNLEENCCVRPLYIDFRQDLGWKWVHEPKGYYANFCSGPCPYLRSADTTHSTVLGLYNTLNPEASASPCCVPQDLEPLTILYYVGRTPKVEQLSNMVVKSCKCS
Assay: Biacore off-rate vs wt GC1008
Kindly state kd mutant/kd wt for each of the entries shown.

Please fill in: kd mutant/kd wt reported for D56R (antibody, V domains shown, GC1008 IgG4 variant) VH: QVQLVQSGAEVKKPGSSVKVSCKASGYTFSSNVISWVRQAPGQGLEWMGGVIPIVRIANYAQRFKGRVTITADESTSTTYMELSSLRSEDTAVYYCASTLGLVLDAMDYWGQGTLVTVSS VL: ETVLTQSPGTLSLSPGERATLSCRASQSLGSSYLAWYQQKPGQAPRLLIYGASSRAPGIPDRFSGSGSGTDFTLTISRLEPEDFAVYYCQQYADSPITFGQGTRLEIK = 0.7

Note to self: kd mutant/kd wt recorded for S30E (antibody, V domains shown, GC1008 IgG4 variant) VH: QVQLVQSGAEVKKPGSSVKVSCKASGYTFESNVISWVRQAPGQGLEWMGGVIPIVDIANYAQRFKGRVTITADESTSTTYMELSSLRSEDTAVYYCASTLGLVLDAMDYWGQGTLVTVSS VL: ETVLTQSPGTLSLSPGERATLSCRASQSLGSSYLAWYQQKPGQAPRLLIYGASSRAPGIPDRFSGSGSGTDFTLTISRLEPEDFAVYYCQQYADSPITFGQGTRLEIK was 1.1
